In what follows, each item is paired with its MIC for Staphylococcus epidermidis ATCC 12228.
Reply numerically in µM, unit not repeated.

- record-smiles: "CC(C)C[C@H](NC(=O)CNC(=O)[C@H](CCCN=C(N)N)NC(=O)[C@H](CS)NC(=O)[C@H](CC(=O)O)NC(=O)CNC(=O)CNC(=O)[C@H](CO)NC(=O)[C@@H](N)Cc1ccccc1)C(=O)N[C@@H](CCCN=C(N)N)C(=O)N[C@@H](CCCN=C(N)N)C(=O)N[C@@H](CCCN=C(N)N)C(=O)N[C@@H](CS)C(=O)N[C@@H](Cc1ccccc1)C(=O)N[C@@H](CS)C(=O)N[C@H](C(=O)N[C@@H](CCCN=C(N)N)C(N)=O)[C@@H](C)O"
  measurement-units: "µM"
  MIC: 15.7

# context switch: different molecule, same MIC
Which measured MIC value corresponds to "CC[C@H](C)[C@H](NC(=O)[C@H](CCCN=C(N)N)NC(=O)[C@H](C)NC(=O)[C@H](C)N)C(=O)N[C@H](C(=O)N[C@@H](CC(C)C)C(=O)N[C@@H](CCCN=C(N)N)C(=O)NCC(=O)N[C@@H](CCCN=C(N)N)C(=O)N[C@@H](Cc1ccccc1)C(=O)N[C@@H](CCCN=C(N)N)C(N)=O)[C@@H](C)CC" ?
8

###

In what follows, each item is paired with its MIC for Staphylococcus aureus ATCC 43300.

Example results:
- record-smiles: "CC(C)C[C@H](NC(=O)CN)C(=O)N[C@@H](Cc1ccccc1)C(=O)N[C@@H](CCCCN)C(=O)N[C@@H](CC(C)C)C(=O)N[C@@H](CC(C)C)C(=O)N[C@@H](CCCCN)C(=O)N[C@@H](CCCCN)C(=O)N[C@@H](CC(C)C)C(=O)N[C@@H](CC(C)C)C(=O)N[C@@H](CCCCN)C(=O)N[C@@H](CC(C)C)C(=O)N[C@@H](CC(C)C)C(=O)N[C@@H](CCCCN)C(N)=O"
  readout-name: "MIC"
  result: "> 20 µM"
- record-smiles: "CC(C)[C@@H]1NC(=O)[C@H](CCCN=C(N)N)NC(=O)[C@H](C)NC(=O)[C@@H](NC(=O)[C@H](Cc2c[nH]c3ccccc23)NC(=O)[C@@H](N)CCCCN)CSSC[C@@H](C(=O)N[C@@H](CCCN=C(N)N)C(=O)O)NC(=O)[C@H](CCCN=C(N)N)NC(=O)[C@H](CCCN=C(N)N)NC(=O)[C@H](Cc2ccc(O)cc2)NC(=O)[C@@H]2CSSC[C@H](NC1=O)C(=O)N[C@@H](C)C(=O)N[C@@H](CCCN=C(N)N)C(=O)NCC(=O)N[C@@H](C)C(=O)N2"
  readout-name: "MIC"
  result: "> 7.77 µM"

# context switch: different compound, same MIC
Which measured MIC value corresponds to "CC(C)C[C@H](NC(=O)[C@H](CC(C)C)NC(=O)[C@H](CCCN=C(N)N)NC(=O)[C@H](CCCN=C(N)N)NC(=O)[C@H](CC(C)C)NC(=O)[C@H](CCCN=C(N)N)NC(=O)[C@H](CCCN=C(N)N)NC(=O)[C@H](CC(C)C)NC(=O)[C@H](CC(C)C)NC(=O)[C@@H](N)CCCN=C(N)N)C(=O)N[C@@H](CCCN=C(N)N)C(N)=O" ?
8 µM
